For each record, write down the corresponding viability, T/C.
Tested on: 186277-243-T-J2-PDC complex spheroid viability;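 further: spheroids exposed to drugs for 7 days; 100% = DMSO vehicle control viability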
Test: Anticancer human tumor 186277-243-T-J2-PDC patient-derived colon adenocarcinoma cell line growth inhibition [GQUAD]
Conditions: second compound 0.0316 µM; first compound 0.1 µM; active compounds read low
Give bare numbers, in %.

- COMPOUND: "CC(C)n1c(=O)n(C)c2cnc3cc(F)c(-c4ccc(OCCCN5CCCCC5)nc4)cc3c21 + Cc1[nH]c2ccc(F)cc2c1-c1nc2c3cccnc3c3ncccc3c2[nH]1"
  QUANTITY UNIT: "%"
  RECORDED VALUE: 94.9
- COMPOUND: "C#Cc1c(F)ccc2cc(O)cc(-c3ncc4c(N5CC6CCC(C5)N6)nc(OCC56CCCN5CC(F)C6)nc4c3F)c12 (stereo not drawn) + CN(C)c1ccc(Nc2c3ccc(NC(=O)CCN4CCCC4)cc3nc3cc(NC(=O)CCN4CCCC4)ccc23)cc1"
  QUANTITY UNIT: "%"
  RECORDED VALUE: 47.4

Next compound, viability, T/C to be filled in.
The reported 186277-243-T-J2-PDC complex spheroid viability viability, T/C of COc1cc(C2c3cc4c(cc3C(OC3OC5COC(C)OC5C(O)C3O)C3COC(=O)C23)OCO4)cc(OC)c1O (stereo not drawn) + Cc1[nH]c2ccc(F)cc2c1-c1nc2c3cccnc3c3ncccc3c2[nH]1 is 101

The values you see were collected from PubChem BioAssay AID2060512.
